protein stability index listing for selected variants.
B1: INTS4 (parent)
chain: IRLVDDAFGKICHMVSDGSWVVRV

- Variants of: B1
- Test name: protein stability index of a GFP-peptide fusion (GPS, HEK-293T) (PSI 1-6); higher = more stable;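 note: lentivirally expressed fusions sorted by FACS into six bins by GFP to DsRed ratio, PSI derived from sequencing read proportions per bin multiplied by bin number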
- Settings: c terminus: a fixed tail appended
Answer field: number only, no words.

Answered cases to consult:
Variant code: F8Q
protein stability index: 2.5
//
Variant code: M14R
protein stability index: 1.53

Enquiry: Look up protein stability index for this variant: L3A
Return: 3.09

Enquiry: How about G18P ?
Return: 4.4

Enquiry: How about V15A ?
Return: 3.99

Enquiry: How about R2A ?
Return: 3.67
